B1: KRT13 (parent)
chain: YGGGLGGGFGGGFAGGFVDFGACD

Variants of: B1
Experiment: protein stability index of a GFP-peptide fusion (GPS, HEK-293T) (PSI 1-6); higher = more stable;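 note: lentivirally expressed fusions sorted by FACS into six bins by GFP to DsRed ratio, PSI derived from sequencing read proportions per bin multiplied by bin number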
Conditions: c terminus: a fixed tail appended
Assign T whenever protein stability index does not fall below 2; assign F whenever it does.

MUTATION LIST: D19Y
CLASSIFICATION: T
//
MUTATION LIST: G11I
CLASSIFICATION: T
//
MUTATION LIST: D19P
CLASSIFICATION: F
//
MUTATION LIST: L5T
CLASSIFICATION: T
//
MUTATION LIST: G21H
CLASSIFICATION: F
//
MUTATION LIST: V18G
CLASSIFICATION: T
//
MUTATION LIST: F9R
CLASSIFICATION: F
//
MUTATION LIST: G12K
CLASSIFICATION: F
//
MUTATION LIST: A14C
CLASSIFICATION: T
//
MUTATION LIST: G16I
CLASSIFICATION: T
//
MUTATION LIST: G4Y
CLASSIFICATION: T
//
MUTATION LIST: Y1L
CLASSIFICATION: F
//
MUTATION LIST: Y1M
CLASSIFICATION: T
//
MUTATION LIST: L5G
CLASSIFICATION: F
//
MUTATION LIST: G11E
CLASSIFICATION: T
